Tested on: Caco-2
Test: cell viability relative to DMSO; higher = less toxic
Conditions: 72 h; 10000 nM
metricName: cell viability (%)
Dear colleague, please return just the value in %, with no unit written.

Request: For the molecule shown here, Cc1[nH]c2ccc(O)cc2c1CCN [2-methyl-5-hydroxytryptamine] , give the reported cell viability.
Result: 102

Request: For the molecule shown here, Oc1ccc(OCc2ccccc2)cc1 [monobenzone] , give the reported cell viability.
Result: 88.3

Request: For the molecule shown here, Cn1nnc2c(C(N)=O)ncn2c1=O [temozolomide] , give the reported cell viability.
Result: 99.3

Request: For the molecule shown here, OC(c1ccccc1)C1CCN(CCc2ccccc2)CC1 (stereo not given) , give the reported cell viability.
Result: 95.4

Request: For the molecule shown here, CC[C@]12CCCN3CCc4c(n(c5ccccc45)[C@@](O)(C(=O)OC)C1)[C@@H]32 [vincamine] , give the reported cell viability.
Result: 100

Measured values drawn from the supplement of paper PMC13380429 for this set.
